Biological target: KRAS in AGS cells (KRAS G12D mutant cell line) or LS180 cells (KRAS G12D mutant cell line) (Homo sapiens, UniProt P01116, G12D)
Construct: CRL-187 (LS180) (so in the source); host or cells: AGS or LS180 cells
Sequence (P01116 1-188 isoform P01116-2 G12D): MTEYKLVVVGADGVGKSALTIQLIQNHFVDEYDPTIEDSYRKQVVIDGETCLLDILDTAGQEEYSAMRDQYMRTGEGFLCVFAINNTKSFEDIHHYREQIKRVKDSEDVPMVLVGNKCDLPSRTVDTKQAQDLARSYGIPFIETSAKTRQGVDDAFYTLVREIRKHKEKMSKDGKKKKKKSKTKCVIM
Assay: KRAS Western Blot (WB) assay
Format: cell-based
Conditions: KRAS degradation, 24 hours incubation, normalized to β-actin

Molecule: C#Cc1c(F)ccc2cc(O)cc(-c3ncc4c(N5CC6CCC(C5)N6)nc(OC[C@@]56CCCN5[C@H](COC(=O)NCCCCCCCCCNc5cccc7c5C(=O)N(C5CCC(=O)NC5=O)C7=O)CC6)nc4c3F)c12 (stereo partly shown) [Compound 016]
DC50: A (DC50 less than 1 μM)
--
Molecule: C#Cc1c(F)ccc2cc(O)cc(-c3ncc4c(N5CC6CCC(C5)N6)nc(OC[C@@]56CCCN5[C@H](COC(=O)N5CCC(OCC#Cc7cccc8c7n(C)c(=O)n8C7CCC(=O)NC7=O)CC5)CC6)nc4c3F)c12 (stereo partly shown) [Compound 033]
DC50: A (DC50 less than 1 μM)
--
Molecule: C#Cc1c(F)ccc2cc(O)cc(-c3ncc4c(N5CC6CCC(C5)N6)nc(OC[C@@]56CCCN5[C@H](COC(=O)NCCCCCCCCCc5ccc7c(c5)n(C)c(=O)n7C5CCC(=O)NC5=O)CC6)nc4c3F)c12 (stereo partly shown) [Compound 010]
DC50: A (DC50 less than 1 μM)

###

Molecular target: KRAS (G12D)-HiBit in AsPc-1-KRAS (G12D)-HiBit-KI cell (Homo sapiens, UniProt P01116, G12D)
Construct: host or cells: AsPc-1-KRAS (G12D)-HiBit-KI cells (knock-in line)
Sequence (P01116 1-188 isoform P01116-2 G12D): as above
Assay: G12D HiBit assay
Format: cell-based
Details: 24 hours compound treatment, absolute DC50, read-out: Average PHA DC50
Measure Name: DC50

Record request: DC50 value, item C#Cc1c(F)ccc2cccc(-c3ncc4c(N5CC6CCC(C5)N6)nc(OC[C@@]56CCCN5[C@H](COC(=O)NCCCC(=O)N5CCN(c7ccc(N8CCC(=O)NC8=O)cc7)CC5)CC6)nc4c3F)c12
≥ 300 nM

Record request: DC50 value, item C#Cc1c(F)ccc2cccc(-c3ncc4c(N5CC6CCC(C5)N6)nc(OC[C@@]56CCCN5[C@H](COC(=O)N5CCC(COC7CCN(Cc8cccc9c8n(C)c(=O)n9C8CCC(=O)NC8=O)CC7)CC5)CC6)nc4c3F)c12 (some centres unmarked)
< 100 nM

Record request: DC50 value, item C#Cc1c(F)ccc2cccc(-c3ncc4c(N5CC6CCC(C5)N6)nc(OC[C@@]56CCCN5[C@H](COC(=O)N5CCC(CCn7cc(-c8cccc9c8n(C)c(=O)n9C8CCC(=O)NC8=O)nn7)CC5)CC6)nc4c3F)c12 (some centres unmarked)
< 100 nM

Record request: DC50 value, item C#Cc1c(F)ccc2cccc(-c3ncc4c(N5CC6CCC(C5)N6)nc(OC[C@@]56CCCN5[C@H](COC(=O)N5CCC(Cn7cc(-c8cccc9c8n(C)c(=O)n9C8CCC(=O)NC8=O)nn7)CC5)CC6)nc4c3F)c12 (some centres unmarked)
≥ 300 nM

Record request: DC50 value, item CCc1c(F)ccc2cc(O)cc(-c3ncc4c(N5CCCC6(CCO6)C5)nc(OC[C@@]56CCCN5[C@H](COC(=O)N5CCC(OCCCc7cccc8c7n(C)c(=O)n8C7CCC(=O)NC7=O)CC5)CC6)nc4c3F)c12 (some centres unmarked)
< 100 nM

Record request: DC50 value, item C#Cc1c(F)ccc2cccc(-c3ncc4c(N5CC6CCC(C5)N6)nc(OC[C@@]56CCCN5[C@H](COC(=O)NCCCCCC(=O)N5CCN(c7ccc(N8CCC(=O)NC8=O)cc7)CC5)CC6)nc4c3F)c12
≥ 300 nM

Record request: DC50 value, item C#Cc1c(F)ccc2cccc(-c3ncc4c(N5CC6CCC(C5)N6)nc(OC[C@@]56CCCN5[C@H](COC(=O)N5CCC(N7CCN(c8cccc9c8n(C)c(=O)n9C8CCC(=O)NC8=O)CC7)CC5)CC6)nc4c3F)c12 (some centres unmarked)
≥ 300 nM

Record request: DC50 value, item C#Cc1c(F)ccc2cccc(-c3ncc4c(N5CC6CCC(C5)N6)nc(OC[C@@]56CCCN5[C@H](COC(=O)N5CCC(OCCC#Cc7cccc8c7n(C)c(=O)n8C7CCC(=O)NC7=O)CC5)CC6)nc4c3F)c12 (some centres unmarked)
< 100 nM

Record request: DC50 value, item C#Cc1c(F)ccc2cc(O)cc(-c3ncc4c(N5CC6CCC(C5)N6)nc(OC[C@@]56CCCN5[C@H](COC(=O)N5CCC(OCCCc7cccc8c7n(C)c(=O)n8C7CCC(=O)NC7=O)CC5)CC6)nc4c3F)c12 (some centres unmarked)
< 100 nM

Record request: DC50 value, item C#Cc1c(F)ccc2cccc(-c3ncc4c(N5CC6CCC(C5)N6)nc(OC[C@@]56CCCN5[C@H](COC(=O)N5CCC(OCCCCCCc7cccc8c7n(C)c(=O)n8C7CCC(=O)NC7=O)CC5)CC6)nc4c3F)c12 (some centres unmarked)
< 100 nM

Record request: DC50 value, item C#Cc1c(F)ccc2cccc(-c3ncc4c(N5CC6CCC(C5)N6)nc(OC[C@@]56CCCN5[C@H](COC(=O)N5CCC(CC7CCN(Cc8ccc9c(c8)n(C)c(=O)n9C8CCC(=O)NC8=O)CC7)CC5)CC6)nc4c3F)c12 (some centres unmarked)
< 100 nM

Record request: DC50 value, item C#Cc1c(F)ccc2cccc(-c3ncc4c(N5CC6CCC(C5)N6)nc(OC[C@@]56CCCN5[C@H](COC(=O)N5CCC(COC7CN(c8ccc9c(c8)n(C)c(=O)n9C8CCC(=O)NC8=O)C7)CC5)CC6)nc4c3F)c12 (some centres unmarked)
< 100 nM

Record request: DC50 value, item C#Cc1c(F)ccc2cccc(-c3ncc4c(N5CC6CCC(C5)N6)nc(OC[C@@]56CCCN5[C@H](COC(=O)N5CCC(OCCCCc7cccc8c7n(C)c(=O)n8C7CCC(=O)NC7=O)CC5)CC6)nc4c3F)c12 (some centres unmarked)
< 100 nM

Record request: DC50 value, item C#Cc1c(F)ccc2cccc(-c3ncc4c(N5CC6CCC(C5)N6)nc(OC[C@@]56CCCN5[C@H](COC(=O)NCCCC(=O)N5CCN(c7cccc8c7n(C)c(=O)n8C7CCC(=O)NC7=O)CC5)CC6)nc4c3F)c12 (some centres unmarked)
≥ 300 nM

Record request: DC50 value, item C#Cc1c(F)ccc2cccc(-c3ncc4c(N5CC6CCC(C5)N6)nc(OC[C@@]56CCCN5[C@H](COC(=O)N5CCC(OC7CCN(Cc8ccc9c(c8)n(C)c(=O)n9C8CCC(=O)NC8=O)CC7)CC5)CC6)nc4c3F)c12 (some centres unmarked)
< 100 nM

Record request: DC50 value, item C#Cc1c(F)ccc2cccc(-c3ncc4c(N5CC6CCC(C5)N6)nc(OC[C@@]56CCCN5[C@H](COC(=O)N5CCC(CCCCc7cccc8c7n(C)c(=O)n8C7CCC(=O)NC7=O)CC5)CC6)nc4c3F)c12 (some centres unmarked)
≥ 300 nM

Record request: DC50 value, item C#Cc1c(F)ccc2cccc(-c3ncc4c(N5CC6CCC(C5)N6)nc(OC[C@@]56CCCN5[C@H](COC(=O)N5CCC(CN7CCN(c8ccc9c(c8)n(C)c(=O)n9C8CCC(=O)NC8=O)CC7)CC5)CC6)nc4c3F)c12 (some centres unmarked)
< 100 nM

###

Target: KRAS (G12D)-HiBit in AsPc-1-KRAS (G12D)-HiBit-KI cell (Homo sapiens, UniProt P01116, G12D)
Construct: host or cells: AsPc-1-KRAS (G12D)-HiBit-KI cells (knock-in line)
Assay: G12D HiBit assay
Type: cell-based
Settings: 24 hours compound treatment, absolute DC50, read-out: Average PHA DC50
Measure Name: DC50

// lookup DC50 | system=KRAS (G12D)-HiBit in AsPc-1-KRAS (G12D)-HiBit-KI cell (Homo sapiens, UniProt P01116, G12D) | key= C#Cc1c(F)ccc2cccc(-c3ncc4c(N5CC6CCC(C5)N6)nc(OC[C@@]56CCCN5[C@H](COC(=O)N5CCC7(CC5)CC(CCc5ccc8c(c5)n(C)c(=O)n8C5CCC(=O)NC5=O)C7)CC6)nc4c3F)c12 (stereo partly drawn) [Compound 67]
< 100 nM

// lookup DC50 | system=KRAS (G12D)-HiBit in AsPc-1-KRAS (G12D)-HiBit-KI cell (Homo sapiens, UniProt P01116, G12D) | key= C#Cc1c(F)ccc2cccc(-c3ncc4c(N5CC6CCC(C5)N6)nc(OC[C@@]56CCCN5[C@H](COC(=O)N5CCC7(CC5)CN(CCCc5cccc8c5n(C)c(=O)n8C5CCC(=O)NC5=O)CCO7)CC6)nc4c3F)c12 (stereo partly drawn) [Compound 40]
< 100 nM

// lookup DC50 | system=KRAS (G12D)-HiBit in AsPc-1-KRAS (G12D)-HiBit-KI cell (Homo sapiens, UniProt P01116, G12D) | key= C#Cc1c(F)ccc2cccc(-c3ncc4c(N5CC6CCC(C5)N6)nc(OC[C@@]56CCCN5[C@H](COC(=O)N5CCC(CN7CCC(c8cccc9c8n(C)c(=O)n9C8CCC(=O)NC8=O)CC7)CC5)CC6)nc4c3F)c12 (stereo partly drawn) [Compound 38]
< 100 nM

// lookup DC50 | system=KRAS (G12D)-HiBit in AsPc-1-KRAS (G12D)-HiBit-KI cell (Homo sapiens, UniProt P01116, G12D) | key= C#Cc1c(F)ccc2cccc(-c3ncc4c(N5CC6CCC(C5)N6)nc(OC[C@@]56CCCN5[C@H](COC(=O)N5CCC(OCc7ccc8c(c7)n(C)c(=O)n8C7CCC(=O)NC7=O)CC5)CC6)nc4c3F)c12 (stereo partly drawn) [Compound 116]
≥ 300 nM

// lookup DC50 | system=KRAS (G12D)-HiBit in AsPc-1-KRAS (G12D)-HiBit-KI cell (Homo sapiens, UniProt P01116, G12D) | key= C#Cc1c(F)ccc2cccc(-c3ncc4c(N5CCCC6(CCO6)C5)nc(OC[C@@]56CCCN5[C@H](COC(=O)N5CCC(OCCCc7cccc8c7n(C)c(=O)n8C7CCC(=O)NC7=O)CC5)CC6)nc4c3F)c12 (stereo partly drawn) [Compound 36]
≥ 300 nM

// lookup DC50 | system=KRAS (G12D)-HiBit in AsPc-1-KRAS (G12D)-HiBit-KI cell (Homo sapiens, UniProt P01116, G12D) | key= C#Cc1c(F)ccc2cccc(-c3ncc4c(N5CC6CCC(C5)N6)nc(OC[C@@]56CCCN5[C@H](COC(=O)N5CCC(CCN7CCN(Cc8cccc9c8n(C)c(=O)n9C8CCC(=O)NC8=O)CC7)CC5)CC6)nc4c3F)c12 (stereo partly drawn) [Compound 84]
< 100 nM

// lookup DC50 | system=KRAS (G12D)-HiBit in AsPc-1-KRAS (G12D)-HiBit-KI cell (Homo sapiens, UniProt P01116, G12D) | key= C#Cc1c(F)ccc2cccc(-c3ncc4c(N5CC6CCC(C5)N6)nc(OC[C@@]56CCCN5[C@H](COC(=O)N5CCC(OCCCCCc7ccc8c(c7)n(C)c(=O)n8C7CCC(=O)NC7=O)CC5)CC6)nc4c3F)c12 (stereo partly drawn) [Compound 120]
< 100 nM

// lookup DC50 | system=KRAS (G12D)-HiBit in AsPc-1-KRAS (G12D)-HiBit-KI cell (Homo sapiens, UniProt P01116, G12D) | key= C#Cc1c(F)ccc2cccc(-c3ncc4c(N5CC6CCC(C5)N6)nc(OC[C@@]56CCCN5[C@H](COC(=O)N5CC7CCC(C5)C7CN5CCC(c7ccc8c(c7)n(C)c(=O)n8C7CCC(=O)NC7=O)CC5)CC6)nc4c3F)c12 (stereo partly drawn) [Compound 103]
< 100 nM

// lookup DC50 | system=KRAS (G12D)-HiBit in AsPc-1-KRAS (G12D)-HiBit-KI cell (Homo sapiens, UniProt P01116, G12D) | key= C#Cc1c(F)ccc2cccc(-c3ncc4c(N5CC6CCC(C5)N6)nc(OC[C@@]56CCCN5[C@H](COC(=O)N5CCC(OCCc7ccc8c(c7)n(C)c(=O)n8C7CCC(=O)NC7=O)CC5)CC6)nc4c3F)c12 (stereo partly drawn) [Compound 133]
≥ 300 nM

The values you see were collected from patent US12404285B2.
